Data provenance: the OPERA property sets (Mansouri et al. 2018)

measured.attribute: ready biodegradability

Here is how some compounds turned out for ready biodegradability.
INSERT INTO assay_data (compound, result) VALUES
  ('CCCCCCCCC=CCCCCCCCC(=O)OCC(O)C1OCC(O)C1O (stereo not given)', 'readily biodegradable'),
  ('N[C@@H](CCC(=O)O)C(=O)O', 'readily biodegradable'),
  ('CCC(=O)CC(C)CC (stereo not given)', 'readily biodegradable'),
  ('CCCCCCCCCCCC(=O)NCCC[N+](C)(C)CC(=O)[O-]', 'readily biodegradable');

Switching to the query record.
The recorded ready biodegradability for entry `Cc1ccc(C#N)c(=O)[nH]1` equals readily biodegradable
